Below, each entry is listed with its recorded z-score.
# method summary: P. aeruginosa biofilm formation inhibitors, primary screen, strain PAO1, LB-PBS medium, absorbance 600 nm (AID 1176); also: test concentration not given here
# protocol conditions: P. aeruginosa PAO1 growth/biofilm, A600, 12 h; higher = more signal
measure: z-score

C=C(C)c1cc2c(c(CCCCCC)n1)[Si](C(C)C)(C(C)C)OC2 = -0.735
C=C(/C(=C/C[C@@H](OC(C)=O)c1cccc(OCCO)c1)c1cc(C(=O)OC)ccc1OC)C(C)C = -0.153
CCOC(=O)C[C@H]1[C@H](OC(=O)c2ccccc2-c2ccccc2)[C@@H](NC(=O)c2ccc(-c3ccccc3)cc2)c2cc(OCCCO)ccc2N1C(=O)c1ccc2ccccc2n1 = 0.318
COc1ccc([Si](C)(C)[C@@H]2[C@@H](CCn3cc([C@H](O)c4ccccc4)nn3)O[C@]3(C(=O)N(Cc4ccc(N5CCC5=O)cc4)c4ccccc43)[C@H]2C)cc1 = 1.36
Cc1ccc(S[C@]2(C(=O)O)CC(=O)N(C3Cc4ccccc4C3)[C@@H]2c2ccc(CO)cc2)cc1 = 1.15
CCCCN1CC=CC23O[C@@H]4/C=C\CCC(C)OC(=O)C4[C@H]2C(=O)N(C(CO)C(C)C)[C@@H]3C1=O (some centres undefined) = 0.991
CN1C(=O)C2C=CC(C(O)c3ccc(F)cc3)N(Nc3ccccc3)C2C1=O (centres undefined) = 0.944
CCOC(=O)C1=CC[C@@H](c2cccc(Cl)c2)N(S(=O)(=O)c2ccc(C)cc2)C1 = -0.405
C=C(COC)/C(=C/C[C@H](OC(=O)c1ccncc1)c1ccccc1OCCO)c1cnc2ccccc2c1 = -0.104
COCCCNC(=O)[C@]1(CCS(=O)(=O)c2ccccc2)N=C(c2ccc(OCCCO)cc2)O[C@@H]1c1ccccc1CN=[N+]=[N-] = 0.438
C=CCC(OC(C)=O)[C@@H]1[C@@H](N(Cc2ccc(-c3cccc(C(F)(F)F)c3)o2)C(=O)c2ccc(-c3ccccc3)cc2)c2cc(OCCCO)ccc2N1C(=O)c1ccc2ccccc2n1 (some centres undefined) = 0.857
O=C1OCCC/C=C\[C@H]2OC34C=CCN(CCN5CCOCC5)C(=O)[C@H]3N(CCCCCCO)C(=O)[C@@H]4C12 (some centres undefined) = 0.0251
C=CCC(OC(C)=O)[C@@H]1[C@@H](N(Cc2cc3ccccc3o2)C(=O)c2ccc(-c3ccccc3)cc2)c2cc(OCCCO)ccc2N1C(=O)c1ccc2ccccc2c1 (some centres undefined) = 0.857
CC(CO)N1C(=O)[C@@H]2[C@H]3C(=O)OCC=C[C@H]3OC23C=CCN(CCN2CCOCC2)C(=O)[C@@H]13 (some centres undefined) = -0.649
C=C(/C(=C/C[C@H](OC(C)=O)c1ccccc1OCCO)c1cc(C(=O)OC)ccc1OC)C(C)C = -0.529
CC(C)C(=C=CC[C@H](O)c1ccc(OCCO)cc1)C[C@H](O)c1ccccn1 = 0.379
COc1cccc(/C=C/C=O)c1 = -0.131
CN(C)CCCNC(=O)[C@@H]1c2ccccc2C(=O)N(Cc2ccccc2Cl)[C@H]1c1ccc(CO)cc1 = 0.0561
Cc1cc(C)c(C(O)C2C=CC3C(=O)NC(=O)C3N2Nc2ccc(Cl)cc2Cl)c(C)c1 (centres undefined) = 1.62
C=CCC(OC(C)=O)[C@@H]1[C@@H](N(Cc2cccc3ccccc23)C(=O)Cc2ccc(F)cc2)c2cc(OCCCO)ccc2N1C(=O)c1ccc2ccccc2n1 (some centres undefined) = 0.501
O=C1C2C=CC(C(O)c3ccccc3)N(Nc3ccccc3F)C2C(=O)N1c1ccccc1 (centres undefined) = 0.629
C=C(CCCC)/C(=C/C[C@@H](OC(=O)c1ccncc1)c1ccccc1OCCO)c1cnc2ccccc2c1 = 1.07
CO[C@H]1O[C@H](CO)[C@@H](OC(=O)Nc2ccccc2-c2ccccc2)[C@H](OC(=O)Nc2ccc3c(c2)OCO3)[C@H]1OC(=O)Nc1ccc2c(c1)OCO2 = 3.65
CC1CC/C=C\[C@H]2OC34C=CCN(C(C)C)C(=O)[C@H]3N(CCCCCCO)C(=O)[C@@H]4C2C(=O)O1 (some centres undefined) = 0.345
COCCOC(=O)N1C(=O)[C@@]2(c3cc(C#CC4=CCCCC4)ccc31)[C@H](c1ccccc1OCCO)N1[C@H](c3ccccc3)[C@H](c3ccccc3)OC(=O)[C@H]1[C@@H]2C(=O)N1CCCCCCC1 = 0.365
[N-]=[N+]=NCc1ccccc1[C@H]1OC(c2ccc(OCCCO)cc2)=N[C@@]1(CCS(=O)(=O)c1ccccc1)C(=O)NCC(O)CO (some centres undefined) = 1.76
O=C1O[C@@H](c2ccccc2)[C@@H](c2ccccc2)N2[C@@H](c3ccccc3OCCO)[C@]3(C(=O)Nc4ccc(C#CCCO)cc43)[C@@H](C(=O)N3CCCCCCC3)[C@H]12 = 1.26
CC(C)(C)OC(=O)CC[C@@]1(C(=O)NCc2ccccc2)N=C(c2ccc(OCCCO)cc2)O[C@@H]1c1ccccc1N=[N+]=[N-] = 1.2
CN(C)C(=O)[C@@]1(Cc2ccccc2CN=[N+]=[N-])N=C(c2ccc(OCCCO)cc2)O[C@H]1c1ccccc1CN=[N+]=[N-] = 1.35
